Source: PubChem BioAssay AID1963317

- Subject Of Test: Tyrosine-protein kinase ABL1 (Homo sapiens) (UniProt P00519)
- Sequence (P00519 whole entry, looked up): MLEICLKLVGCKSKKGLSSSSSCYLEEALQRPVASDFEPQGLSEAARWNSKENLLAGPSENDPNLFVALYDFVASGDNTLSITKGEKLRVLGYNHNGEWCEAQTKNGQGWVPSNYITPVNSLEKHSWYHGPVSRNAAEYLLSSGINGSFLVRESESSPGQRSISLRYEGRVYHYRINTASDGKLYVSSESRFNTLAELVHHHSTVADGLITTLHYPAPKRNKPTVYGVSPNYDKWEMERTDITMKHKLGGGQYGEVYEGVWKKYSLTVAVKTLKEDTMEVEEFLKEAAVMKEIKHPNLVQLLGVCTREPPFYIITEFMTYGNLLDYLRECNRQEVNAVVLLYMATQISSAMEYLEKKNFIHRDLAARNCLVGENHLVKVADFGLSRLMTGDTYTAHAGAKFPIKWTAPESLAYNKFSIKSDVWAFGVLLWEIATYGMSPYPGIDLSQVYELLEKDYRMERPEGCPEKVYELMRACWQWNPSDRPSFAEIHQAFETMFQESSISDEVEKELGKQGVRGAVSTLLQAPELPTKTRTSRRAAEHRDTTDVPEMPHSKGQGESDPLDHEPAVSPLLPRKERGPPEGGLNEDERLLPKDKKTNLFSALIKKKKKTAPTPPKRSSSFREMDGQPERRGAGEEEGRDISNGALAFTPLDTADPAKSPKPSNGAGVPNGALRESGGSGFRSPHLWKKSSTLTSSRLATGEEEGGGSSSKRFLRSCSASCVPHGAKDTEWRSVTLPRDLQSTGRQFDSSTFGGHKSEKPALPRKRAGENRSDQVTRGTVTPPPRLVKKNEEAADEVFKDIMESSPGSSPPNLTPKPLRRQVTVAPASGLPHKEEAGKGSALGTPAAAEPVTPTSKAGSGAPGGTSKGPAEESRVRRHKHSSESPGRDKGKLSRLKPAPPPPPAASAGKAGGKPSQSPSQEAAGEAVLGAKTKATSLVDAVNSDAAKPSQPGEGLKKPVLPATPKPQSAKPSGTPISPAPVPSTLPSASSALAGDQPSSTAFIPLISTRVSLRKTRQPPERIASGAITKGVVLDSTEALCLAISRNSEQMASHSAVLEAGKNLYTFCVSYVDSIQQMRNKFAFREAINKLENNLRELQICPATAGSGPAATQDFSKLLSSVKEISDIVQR
- Experiment: ABL1 kinase (ABL1-N-HiBiT) enzymatic inhibition screen - Functional assay
- Run Conditions: luminescence; series mostly up to 57.5 µM
- Experimental: National Center for Advancing Translational Sciences (NCATS), National Institute of Health (NIH), Maryland […] SEQUENCE No. (e.g., 1, 2, 3, etc.); […] (e.g., C. elegans, Compounds, Incubation, Read, etc.); VALUE and DESCRIPTION. […] 7. […] (Functional assay) Luminescence measured using CCD-based camera (ViewLux) with settings as follows: Exposure, 1 sec; Gain, High; Speed, Slow; Binning, 2X. […]
Records with an inconclusive call do not appear. The source made the active and inactive calls. Calls follow the shape of the full dose curve.
Property Name: outcome

O=[N+]([O-])O[C@H]1CO[C@H]2[C@@H]1OC[C@H]2O[N+](=O)[O-] : inactive
N#Cc1cn([C@@H]2O[C@H](CO)[C@H](O)[C@@H]2O)c2ncnc(N)c12 : inactive
C/C(O)=C(\C#N)C(=O)Nc1cc(Br)ccc1Br : inactive
Cc1[nH]nc2ccc(-c3cncc(OC[C@@H](N)Cc4c[nH]c5ccccc45)c3)cc12 : inactive

Switching to the query record.
### Prompt Using the record for "CCNC(=O)C[C@@H]1N=C(c2ccc(Cl)cc2)c2cc(OC)ccc2-n2c(C)nnc21" , report its outcome.
### Response inactive
